target-system: T1, Recombinant human MASP1 enzyme (fragment corresponding to amino acids 297-699, C-terminal His Tag) (human, UniProt P48740 297-699)
T1 sequence: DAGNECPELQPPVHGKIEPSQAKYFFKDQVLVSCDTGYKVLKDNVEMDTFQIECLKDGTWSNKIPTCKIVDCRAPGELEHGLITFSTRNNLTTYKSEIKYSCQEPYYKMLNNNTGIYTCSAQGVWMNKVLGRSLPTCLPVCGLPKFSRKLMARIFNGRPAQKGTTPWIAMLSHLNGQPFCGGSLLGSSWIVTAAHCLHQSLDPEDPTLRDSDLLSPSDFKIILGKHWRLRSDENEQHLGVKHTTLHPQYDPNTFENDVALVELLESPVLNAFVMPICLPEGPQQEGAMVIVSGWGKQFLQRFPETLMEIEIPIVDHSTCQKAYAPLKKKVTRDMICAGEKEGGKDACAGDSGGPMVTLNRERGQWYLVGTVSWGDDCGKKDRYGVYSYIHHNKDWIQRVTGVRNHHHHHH
test-details: cell-based or functional assay
Bridge positions count the residues as written; N and C are the ends. Square brackets hold non-standard residues; d marks the D form. Ends that are not written are not given here. * marks the point of attachment. Oic = O=C(O)[C@@H]1C[C@@H]2CCCC[C@@H]2N1; Cyclopropylacetic acid = O=C(CC1CC1)*; tBuAla = CC(C)(C)C[C@H](N)C(=O)O; Chg = N[C@H](C(=O)O)C1CCCCC1; NMeC = CN[C@@H](CS)C(=O)O
observation-type: human MASP1 IC50 (nM)
# unit: nM | format: bare number

Specify measured human MASP1 IC50 for {Cyclopropylacetic acid}-ICSRS[tBuAla]PPI[NMeC]I-NH2 (disulfide 2-10; SMILES CC[C@H](C)[C@H](NC(=O)[C@@H]1CSSC[C@H](NC(=O)[C@@H](NC(=O)CC2CC2)[C@@H](C)CC)C(=O)N[C@@H](CO)C(=O)N[C@@H](CCCNC(=N)N)C(=O)N[C@@H](CO)C(=O)N[C@@H](CC(C)(C)C)C(=O)N2CCC[C@H]2C(=O)N2CCC[C@H]2C(=O)N[C@@H]([C@@H](C)CC)C(=O)N1C)C(N)=O) [(Cyclopropylacetic acid)-IC+SRS-((tBu)A)-PPI-((N-Me)C)+I-NH2] . 13

Specify measured human MASP1 IC50 for AICSRSLP[Oic][Chg]CIPD-NH2 (disulfide 3-11; N-terminus assumed; SMILES CC[C@H](C)[C@H](NC(=O)[C@H](C)N)C(=O)N[C@H]1CSSC[C@@H](C(=O)N[C@H](C(=O)N2CCC[C@H]2C(=O)N[C@@H](CC(=O)O)C(N)=O)[C@@H](C)CC)NC(=O)[C@H](C2CCCCC2)NC(=O)[C@@H]2C[C@@H]3CCCC[C@@H]3N2C(=O)[C@@H]2CCCN2C(=O)[C@H](CC(C)C)NC(=O)[C@H](CO)NC(=O)[C@H](CCCNC(=N)N)NC(=O)[C@H](CO)NC1=O) [AIC+SRSLP-(Oic)-(Chg)-C+IPD-NH2] . 12

Specify measured human MASP1 IC50 for AICSRS[3‑(Trimethylsilyl)‑L‑alanine]P[Oic]I[NMeC]IPD-NH2 (disulfide 3-11) [AIC+SRS-(3-(Trimethylsilyl)-L-alanine)-P-(Oic)-I-((N-Me)C)+IPD-NH2] . 14
